Origin of the recorded values: PubChem BioAssay (NCI)

System: NCI-H460 lung
Test: NCI tumour cell line growth inhibition, 48 h
We begin with a simple list: items and their reported TGI.

Molecule | Measured attribute | Result
COC(=O)C(=O)C(/C(=N/N)C(=O)Nc1ccccc1C(N)=O)c1nc2ccc([N+](=O)[O-])cc2[nH]c1=O (stereo not drawn) | TGI | > 100 µM
CN1NC(c2ccccc2)=C(C#N)C(=O)CC1c1ccc(F)cc1 (stereo not drawn) | TGI | > 100 µM
O=C1CC2CC(CC3(CO3)C2)C1F (stereo not drawn) | TGI | > 100 µM
CC(=O)n1[nH]c(=O)n(-c2ccccc2)c1=O | TGI | > 100 µM
O=c1c(-c2ccccc2)c(SCCN2CCOCC2)n(-c2ccccc2)c(=S)n1-c1ccccc1 | TGI | > 100 µM
O=[N+]([O-])c1ccc2c(c1)C(c1ccccc1Cl)=Nc1c(n[nH]c1-c1cccnc1)N2 | TGI | > 25 µM
CC1(C)CCC(C)(C)c2cc(NC(=O)c3ccc(C(=O)O)cc3)ccc21 | TGI | > 62.7 µM

Just so you know, measured TGI for CCOC(=O)C1(N)CC1 came out at > 100 µM

---

Measured TGI by item
Test system: MCF7 breast
Assay: NCI tumour cell line growth inhibition, 48 h

Molecule | TGI
O=c1[nH]nc(Cc2ccccc2)n1/N=C/c1ccc([N+](=O)[O-])cc1 | > 100 µM
O=C1/C(=C/c2ccc(O)c(O)c2)CC/C1=C\c1ccc(O)c(O)c1 | 22.3 µM
NC(=O)CCC(NC(=O)c1c2ccccc2nc2ccccc12)C(=O)O (stereo unspecified) | > 100 µM

Data point: CCCCC1(O)CC2CC1C(C)C2(C)C (stereo unspecified) ; TGI = > 100 µM

Item: COC(=O)c1ccc2c(c1)sc1nc(-c3ccc(OC)cc3)cn12 | TGI: > 100 µM

Item: CCC12C=CCN3CCC4(c5cc(C(c6ccc(OC)cc6)C6Cc7ccccc7N6)c(OC)cc5N(C)C4C(O)(C(=O)OC)C1O)C32 (stereo unspecified) | TGI: 28.3 µM

Measured TGI of Cc1ccc(C(=O)Oc2ccc(/C=C3\CCC/C(=C\c4ccc(OC(=O)c5ccc(C)cc5)cc4)C3=O)cc2)cc1 : > 100 µM

For CC(=O)Oc1ccc2cc(-c3ccc(OC(C)=O)c(OC(C)=O)c3)c(=O)oc2c1 the molecule record lists TGI as > 100 µM

Record summary for COc1cc(C2CC(=O)Nc3c2c(C)nn3-c2nc3ccccc3[nH]2)cc(OC)c1O (stereo unspecified) : reported TGI = > 100 µM

Note to self: TGI recorded for Oc1ccccc1/C=N\NC(=S)N/N=C/c1ccccc1O was 40.3 µM

Notebook: Cn1c(=O)c(Oc2ccc(F)cc2F)cc2cnc(NC3CCOCC3)nc21 , TGI read as > 25 µM

---

Entries and their TGI values follow.
Test system: A549 NSCLC
Assay: NCI tumour cell line growth inhibition, 48 h

Compound | TGI
[Cu+2].[NH-]C(CC(=O)O)C(=O)O.[NH-]C(CC(=O)O)C(=O)O (stereo unspecified) | > 100 µM
CN1CCN(CCCN2c3ccccc3Sc3ccc(Cl)cc32)CC1 | 13.7 µM
COC(=O)C(c1ccc(OC)cc1)N1C(=O)[C@@H](NC(=O)c2ccccc2)[C@H]1[C@@H](C)O (stereo partly specified) | > 100 µM
C=CC1(c2ccc3ccccc3c2)OCC(CC)O1 (stereo unspecified) | > 100 µM
O=CN1CCC23CC(O)CCC2C1Cc1cc(Oc2nnnn2-c2ccccc2)cc(O)c13 (stereo unspecified) | > 100 µM
CC(C)=NNC(=S)NC12CC3CC(CC(C3)C1)C2 | > 100 µM

Entry COc1cc(C2c3cc4c(cc3OC(NCCO)C2C)OCO4)cc(OC)c1O (stereo unspecified) under A549 NSCLC had TGI of > 100 µM

Log: A549 NSCLC, compound CC1=CC(=O)N(n2c(-c3ccccc3)n[nH]c2=O)C1=O , TGI = > 100 µM

For CN(/N=C\c1ccnc2ccccc12)c1ccccc1 on A549 NSCLC, measured TGI was 53.1 µM

// compound COc1ccc(-c2[nH]nc(N)c2-c2cc(OC)c(OC)c(OC)c2)cc1 , assay A549 NSCLC, TGI value: > 100 µM

Tested on A549 NSCLC: CCOC(=O)C(NC(=O)CC)(Nc1ccc(F)cc1F)C(F)(F)F (stereo unspecified) . Observed TGI: > 100 µM

---

Test system: RXF 393 renal
Assay: NCI tumour cell line growth inhibition, 48 h
Measured attribute: GI50

Lookup result for COc1cc2c(c(OC)c1OC)-c1c(c3ccc([N+](=O)[O-])cc3c(=O)n1CCCN)C2=O ; measured GI50: 2.05 µM

The recorded GI50 for Oc1ccccc1/C=N\NC(=S)N/N=C/c1ccccc1O is 5.72 µM

Entry under test: NC(=O)c1cc(Br)ccc1NC(=O)/C=C/c1ccccc1 . Its GI50 was 1.15 µM

The compound O=C([CH-]C(=O)c1ccccc1)c1ccccc1.O=C([CH-]C(=O)c1ccccc1)c1ccccc1.O=C([CH-]C(=O)c1ccccc1)c1ccccc1.[Cl-].[Hf+4] showed GI50 equal to 7.68 µM

---

Tested on: TK-10 renal
Assay: NCI tumour cell line growth inhibition, 48 h
Recorded TGI determines the label; the label ranges are L = under 20 µM, M = from 20 µM up to 70 µM, H = 70 µM and over

Before answering, review these 3 worked examples.
Compound | Class label
CCN(CC)Cc1cc(Nc2ccnc3ccc4nn(C)nc4c23)ccc1O | H
COC(=O)/N=[N+](\[O-])C(c1ccccc1)c1ccccc1 | H
Nc1cc(Cl)ccc1SSc1ccc(Cl)cc1N | M

Hi there! Could you help me figure out the category for CCCC(=O)OC[n+]1ccc(-c2c(COC(=O)NC(C)C)c(COC(=O)NC(C)C)c3n2CCC3)cc1 please? H

Lab note: sort O=[N+]([O-])C=C1c2ccccc2-c2ccccc21 into the matching TGI band. M

Band for the recorded TGI of CN(C)c1ccccc1[CH2][Ga]([Cl])[CH2]c1ccccc1N(C)C ? L

Where would CCCCCCCCCCCCC(Br)C(C)=O (stereo not given) land among the classes by reported TGI? H

Input COc1ccc2c(c1)C(c1cc(OC)c3c(c1)OCO3)C1=C(COC1=O)N2 (stereo not given) ; output its category H

Record CN(C)CCOc1ccccc1NC1=C(Cl)C(=O)C(Nc2ccccc2OCCN(C)C)=C(Cl)C1=O — which class? L

Lab note: sort COc1ccc(NC(=O)c2ccc(NC3=C(Cl)C(=O)N(Cc4ccccc4)C3=O)cc2)c(OC)c1 into the matching TGI band. H

Which class is correct for the following compound? CCOC(=O)c1cc(NS(=O)(=O)c2ccc(C)cc2)cc(C(=O)OCC)c1 H

# bin lookup: classify COc1ccc2c(c1)CCCc1c-2nc2ccccc2c1N by its TGI M

---

Test system: SF-295 CNS
Assay: NCI tumour cell line growth inhibition, 48 h
// TGI lookup, one value per entry
Numbers only here, please. The scale is µM.

Please review the following examples before continuing.
Compound | TGI (µM)
Cc1c2c(nn1-c1ccc(S(=O)(=O)NC(=S)NC(=O)c3ccccc3)cc1)-c1ccccc1CC2 | 48.6
C=C1CC2(CCS(=O)(=O)c3ccccc32)OC1=O (configuration not stated) | 45
CCNc1nnc(-c2ccccc2Nc2ccccc2-c2nnc(NCC)s2)s1 | 40.5

Lab book: TGI of O=S(=O)(NCCCNc1cc(-c2cn(-c3ccccc3)nc2-c2cccc(O)c2)ccn1)c1ccc(Br)cc1 noted as 3.09

Entry under test: CC(C)Cc1ccc(C(C)C(=O)NCc2ccc(Cn3c(=O)sn(CCCI)c3=O)cc2)cc1 (configuration not stated) . Its TGI was 3.08

TGI recorded for this compound, CC(=O)OCCCC#CC#Cc1cccc(=O)o1 , is 32.7

The reported TGI of the compound N#CC1=C(N)Oc2c(sc3c(Br)cccc23)C1c1ccc(Cl)cc1 (configuration not stated) was 0.869

Sample O=C(CSSCC(=O)Nc1ccc(Br)cc1)Nc1ccc(Br)cc1 ; TGI observed: 28

CC(C)C(Sc1nc(-c2ccccc2)c(-c2ccccc2)[nH]1)c1n[nH]c(=S)n1-c1ccccc1 (configuration not stated) has a reported TGI of 57.3

Recorded TGI (compound CCCc1cn2c(/C=N/N=C(N)N)c(-c3ccc(Cl)c([N+](=O)[O-])c3)nc2s1 ): 3.1

---

Tested on: NCI/ADR-RES ovarian
Experiment: NCI tumour cell line growth inhibition, 48 h
Each record here notes measured GI50.

Before answering, review these 5 worked examples.
Molecule | Result
C=C1C(=O)O[C@H]2[C@H]1CC/C(CNC(=O)/C=C/c1ccccc1F)=C\CC[C@@]1(C)O[C@@H]21 | 3.1 µM
Cc1c2c(nn1-c1ccc(S(=O)(=O)NC(=S)NC(=O)c3ccccc3)cc1)-c1ccccc1CC2 | > 100 µM
COc1cc(C2CC(=O)Nc3c2c(C)nn3-c2nc3ccccc3[nH]2)cc(OC)c1O (centres undefined) | 7.81 µM
Cn1cc(C2=C(c3cn(CCCCCO)c4ccccc34)C(=O)NC2=O)c2ccccc21 | 7.04 µM
O=C1c2cc(F)ccc2-c2c1c1ccc([N+](=O)[O-])cc1c(=O)n2CCCBr | 4.37 µM

Result for COc1cc2c(c(OC)c1OC)-c1c(c3ccc([N+](=O)[O-])cc3c(=O)n1CCCN)C2=O , tested on NCI/ADR-RES ovarian, GI50: 5.49 µM

The observed GI50 for CC(=O)OCCCC#CC#Cc1cccc(=O)o1 when tested with NCI/ADR-RES ovarian stands at 39.6 µM

# CC/C=C\C[C@H](O)C/C=C1/C(=O)C=C[C@@H]1C/C=C\CCCCO with NCI/ADR-RES ovarian: GI50 is 3.35 µM

Per the reported NCI/ADR-RES ovarian data, Cc1sc2c(c1C)C(c1ccc(Cl)cc1)=N[C@@H](CC(=O)NCCCN1CCN(C)CC1)c1nnc(C)n1-2 has GI50 of > 100 µM
